experimental-target: GPR139 (Homo sapiens, UniProt Q6DWJ6)
Sequence (Q6DWJ6 1-353): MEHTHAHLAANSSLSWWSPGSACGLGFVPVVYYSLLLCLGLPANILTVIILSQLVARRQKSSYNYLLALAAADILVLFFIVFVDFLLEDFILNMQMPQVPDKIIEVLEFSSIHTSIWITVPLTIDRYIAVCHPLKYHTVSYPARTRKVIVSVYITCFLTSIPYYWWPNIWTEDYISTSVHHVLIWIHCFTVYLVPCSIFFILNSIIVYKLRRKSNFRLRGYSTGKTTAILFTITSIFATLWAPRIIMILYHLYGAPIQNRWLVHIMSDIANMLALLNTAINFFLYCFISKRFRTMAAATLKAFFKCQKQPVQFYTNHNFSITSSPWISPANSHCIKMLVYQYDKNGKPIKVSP
assay-text: GPR139 Agonist titration / agonist counterscreen assay (calcium detection, HEK-GPR139 cells)
Format: cell-based
Parameters: expressed in transfected cells; host or cells: HEK Aequorin cells, Maxcyte transient transfection
condition-set: GPR139 Agonist Activity
Efficiency Ligand vs 0.3: at or above is TRUE, below is FALSE.

| molecule | experimental-target | answer-label |
| --- | --- | --- |
| Cc1ccc(NC(=O)CSC2=C(C#N)C(c3ccc(F)cc3)CC(=O)N2)c(C)c1 (stereo not drawn) [SR-01000484494] | GPR139 (Homo sapiens, UniProt Q6DWJ6) | FALSE |
| O=C(C1CC1)N1CCc2cc(S(=O)(=O)NCC3COc4ccccc4O3)ccc21 (stereo not drawn) [SR-01000126429] | GPR139 (Homo sapiens, UniProt Q6DWJ6) | FALSE |
| CC1=NNC(=O)C1CC(=O)N/N=C/c1c(Cl)cccc1Cl (stereo not drawn) [SR-01000310664] | GPR139 (Homo sapiens, UniProt Q6DWJ6) | TRUE |
| Nc1ccc2c(C(F)(F)F)cc(=O)oc2c1 [SR-01000597171] | GPR139 (Homo sapiens, UniProt Q6DWJ6) | TRUE |
| COc1cc(C(=O)NNC(=O)CSc2ccc(C)cc2)cc(OC)c1C [SR-01000070170] | GPR139 (Homo sapiens, UniProt Q6DWJ6) | TRUE |
| CC1(c2ccc3c(c2)OCO3)NC(=O)N(CC(=O)NC2CCCC2)C1=O (stereo not drawn) [SR-01000065547] | GPR139 (Homo sapiens, UniProt Q6DWJ6) | TRUE |
| Cc1cc(-c2nnc(NC(=O)CCc3ccccc3)o2)n(C)n1 [SR-01000920602] | GPR139 (Homo sapiens, UniProt Q6DWJ6) | TRUE |

---

experimental-target: GPR139 (Homo sapiens)
assay-text: GPR139 Agonist titration / agonist counterscreen assay (calcium detection, HEK-GPR139 cells)
Format: cell-based
Parameters: expressed in transfected cells; host or cells: HEK Aequorin cells, Maxcyte transient transfection
condition-set: GPR139 Agonist Activity; based on logD

| molecule | Lipophilic Efficiency (logD) |
| --- | --- |
| COc1ccc(C2(C)NC(=O)N(CC(=O)NCc3ccc(F)cc3)C2=O)cc1 (stereo not shown) [SR-01000918720] | 5.56 |
| CN(C(=O)CN1C(=O)NC(C)(c2ccc3ccccc3c2)C1=O)C1CCCCC1 (stereo not shown) [SR-01000048373] | 3.96 |
| Cc1cc(C(=O)CCC(=O)NNC(=O)CSc2nc3ccccc3s2)c(C)s1 [SR-01000070591] | 4.02 |
| Cc1ccc(S(=O)(=O)NC(=O)NC(C)Cc2ccccc2)cc1 (stereo not shown) [SR-01000362293] | 5.01 |
